- System: Plasmodium falciparum
- ASSAY_NAME: Antiprotozoal activity against erythrocytic form of chloroquine/pyrimethamine-resistant Plasmodium falciparum K1 after 48 hrs by [3H]-hypoxanthine incorporation assay
- Assay type: functional, organism-based
In this section we review reported IC50 values for a set of compounds.
Please state the figure in µM; there is no need to write the unit.

Some compounds with known IC50 results, for comparison:
CPD_SMILES	PARAMETER_MEASURED	UNITS_LABEL	REPORTED_MEASUREMENT
CC1=C(O)/C(=C/[C@H](C)CCC/C(C)=C/CCc2coc(Cc3ccoc3)c2)OC1=O	IC50	µM	58
CC1=C(O)/C(=C/[C@H](C)CC/C=C(/C)CCCc2coc(Cc3ccoc3)c2)OC1=O	IC50	µM	56

Prompt line: Can you share its IC50? I mean this compound: CC1=C(O)/C(=C/[C@H](C)CCC/C(C)=C/CCc2coc(CC3=CCN(CC(=O)O)C3=O)c2)OC1=O
Response line: 95

====

- System: L6
- ASSAY_NAME: Cytotoxicity against rat L6 cells after 72 hrs by alamar blue assay
- Assay type: cell-based
- MEASUREMENT_PARAMETERS: L6, 72 h
PARAMETER_MEASURED: IC50 (µM)
Quick note: give the figure in µM, leave out the unit.

CPD_SMILES	MEASURED_ON	IC50 / µM
CC1=C(O)/C(=C/[C@H](C)CCC/C(C)=C/CCc2coc(Cc3ccoc3)c2)OC1=O	L6	150
COc1cc([C@@H]2c3cc4c(cc3[C@H](O)[C@H]3COC(=O)[C@H]23)OCO4)cc(OC)c1OC	L6	0.01

Could you now consider this next molecule?
Prompt line: Record request: IC50 value, item CC1=C(O)/C(=C/[C@H](C)CC/C=C(/C)CCCc2coc(Cc3ccoc3)c2)OC1=O
Response line: 140

Values compiled from ChEMBL document CHEMBL4130402.
